pIC50: −log10 of the molar value.
Measurement record for Histone deacetylase 1 (Homo sapiens, UniProt Q13547); quantity recorded: pIC50.
measure.name: pIC50

# example entries with known answers
Cn1cnc(-c2ccc(N)c(NC(=O)c3ccc(N4CCC5(CC4)CNC(=O)O5)nc3)c2)c1    7.29
Cc1csc(-c2ccc(N)c(NC(=O)c3ccc(N4CCC5(CC4)CNC(=O)O5)nc3)c2)c1    7.85
Nc1ccc(-c2ccccc2)cc1NC(=O)c1ccc(N2CCC3(CC2)CNC(=O)O3)nc1    7.77
Nc1ccc(-c2ccc(F)cc2)cc1NC(=O)c1ccc(N2CCC3(CC2)CNC(=O)O3)nc1    7.70

A: Cn1cc(-c2ccc(N)c(NC(=O)c3ccc(N4CCC5(CC4)CNC(=O)O5)nc3)c2)cn1
B: Nc1ccccc1NC(=O)c1ccc(N2CCC3(CC2)CNC(=O)O3)nc1
C: Nc1ccc(-c2ccsc2)cc1NC(=O)c1ccc(N2CCC3(CC2)CNC(=O)O3)nc1
Q. Your job: order these 3 records by pIC50, ascending. Would you mind listing the labels in the order asked for?
A. B, A, C
(B: 6.24, A: 7.74, C: 7.96)

* * *

assay.summary: in vivo
condition.parameters: CD1 nu/nu, mouse, po, 200 mg/kg
Description: Cmin in CD1 nu/nu mouse xenografted with human HCT116 cells at 200 mg/kg, po qd for 3 weeks after 24 hrs
measure.name: concentration at 24 h (µM)
The reply should contain only the number, in µM.

Q. Please give the measured concentration at 24 h for this molecule: Nc1ccc(-c2cccs2)cc1NC(=O)c1ccc(N2CCC3(CC2)CNC(=O)O3)nc1
A. 5

* * *

Measurement record for Voltage-gated inwardly rectifying potassium channel KCNH2 (Homo sapiens); quantity recorded: pKi.
For clarity, pKi is expressed as the negative log10 of concentration in mol/L.

Q. Please give the measured pKi for this compound: Nc1ccc(-c2ccccc2)cc1NC(=O)c1ccc(N2CCC3(CC2)CNC(=O)O3)nc1
A. 5.47

Q. What do you get for Cc1csc(-c2ccc(N)c(NC(=O)c3ccc(N4CCC5(CC4)CNC(=O)O5)nc3)c2)c1 ?
A. 5.70

Q. What do you get for Nc1ccc(-c2ccc(F)cc2)cc1NC(=O)c1ccc(N2CCC3(CC2)CNC(=O)O3)nc1 ?
A. 6.21

* * *

assay.summary: Half life in Sprague-Dawley rat at 2 mg/kg, iv
Type: ADME, organism-based
Design: dose 2 mg/kg, route intravenous
condition.parameters: in vivo
measure.name: half-life (h)
The reply should contain only the number, in h.

Q. Please give the measured half-life for this molecule: Nc1ccc(-c2cccs2)cc1NC(=O)c1ccc(N2CCC3(CC2)CNC(=O)O3)nc1
A. 4.2

* * *

assay.summary: Half life in rhesus monkey at 0.5 mg/kg, iv
Assay type: ADME, organism-based, Macaca mulatta
Set-up: dose 0.5 mg/kg, route intravenous
condition.parameters: in vivo
measure.name: half-life (h)
The reply should contain only the number, in h.

Q. Please give the measured half-life for this compound: Nc1ccc(-c2cccs2)cc1NC(=O)c1ccc(N2CCC3(CC2)CNC(=O)O3)nc1
A. 7.1

* * *

assay.summary: in vivo
condition.parameters: CD1 nu/nu, mouse, po, 150 mg/kg
Description: Cmin in CD1 nu/nu mouse xenografted with human HCT116 cells at 150 mg/kg, po qd for 3 weeks after 24 hrs
measure.name: concentration at 24 h (µM)
The reply should contain only the number, in µM.

Q. Please give the measured concentration at 24 h for this compound: Nc1ccc(-c2cccs2)cc1NC(=O)c1ccc(N2CCC3(CC2)CNC(=O)O3)nc1
A. 3.3
